# assay_name: qHTS of pediatric cancer cell lines to identify multiple opportunities for drug repurposing: Primary screen for SJ-GBM2 cells (AID 1347091)
# conditions: SJ-GBM2 viability, CellTiter-Glo luminescence, 48 h; series mostly up to 46 µM
Records with an inconclusive call do not appear. Activity calls are given as the source filed them. Calls come from the whole dose curve; as a rule, active = well fitted cell-killing curve with a large enough effect; inconclusive = small, poorly fitted or top-dose-only effect; inactive = no such curve, though single readings can be large or run the other way.
Classes used: t (active), f (inactive)

- compound: "NS(=O)(=O)c1ccc(NC2=CC(=O)c3ccccc3C2=O)cc1"
  assigned_label: "f"
- compound: "OC[C@@H](O)[C@H](O)[C@H](O)[C@@H](O)CO"
  assigned_label: "f"
- compound: "CC=CC[C@@H](C)C(=O)[C@H]1C(=O)N[C@@H](C(C)C)C(=O)N(C)CC(=O)N(C)[C@@H](CC(C)C)C(=O)N[C@@H](C(C)C)C(=O)N(C)[C@@H](CC(C)C)C(=O)N[C@@H](C)C(=O)N[C@H](C)C(=O)N(C)[C@@H](CC(C)C)C(=O)N(C)[C@@H](CC(C)C)C(=O)N(C)[C@@H](C(C)C)C(=O)N1C"
  assigned_label: "t"
- compound: "CN(C)C1CCN(C(=O)c2ccc(NC(=O)Nc3nc(N4CCOCC4)nc(N4CCOCC4)n3)cc2)CC1"
  assigned_label: "t"
- compound: "Clc1ccc(Cn2c(CN3CCCC3)nc3ccccc32)cc1"
  assigned_label: "f"
- compound: "CCC(=O)O[C@]1(C(=O)CO)CC[C@H]2[C@@H]3CCC4=CC(=O)CC[C@]4(C)[C@@H]3CC[C@@]21C"
  assigned_label: "f"
- compound: "OC[C@H]1O[C@@H](Oc2cc(O)cc(C=Cc3ccc(O)cc3)c2)[C@H](O)[C@@H](O)[C@H]1O"
  assigned_label: "f"
- compound: "CC(C)(C)OC(=O)N[C@H]1CCCCCC=C[C@@H]2C[C@@]2(C(=O)NS(=O)(=O)C2CC2)NC(=O)[C@@H]2C[C@@H](OC(=O)N3Cc4cccc(F)c4C3)CN2C1=O"
  assigned_label: "f"
- compound: "Cc1c(O)cccc1C(=O)N[C@@H](CSc1ccccc1)[C@H](O)CN1C[C@H]2CCCC[C@@H]2C[C@@H]1C(=O)NC(C)(C)C"
  assigned_label: "t"
- compound: "CC(=O)O[C@]1(C(C)=O)CC[C@H]2[C@@H]3C=C(Cl)C4=CC(=O)[C@@H]5C[C@@H]5[C@]4(C)[C@H]3CC[C@@]21C"
  assigned_label: "f"
- compound: "CC(=NNC(=S)N1CCC1)c1ccccn1"
  assigned_label: "t"
- compound: "CO[C@H]1C=CO[C@@]2(C)Oc3c(C)c(O)c4c(O)c(c5c(c4c3C2=O)NC2(CCN(CC(C)C)CC2)N=5)=NC(=O)C(C)=CC=C[C@H](C)[C@H](O)[C@@H](C)[C@@H](O)[C@@H](C)[C@H](OC(C)=O)[C@H]1C"
  assigned_label: "f"
- compound: "O=C(O)CCc1nc(-c2ccccc2)c(-c2ccccc2)o1"
  assigned_label: "f"
- compound: "CC(C(=O)O)c1ccc(-c2ccccc2)c(F)c1 (configuration not stated)"
  assigned_label: "f"
- compound: "O=C(O)C(O)Cc1ccc(O)c(O)c1 (configuration not stated)"
  assigned_label: "f"
- compound: "O=c1c(-c2ccc(O)cc2)coc2cc(O[C@@H]3O[C@H](CO)[C@H](O)[C@H](O)[C@H]3O)ccc12"
  assigned_label: "f"
- compound: "CC=C(C)C(=O)O[C@H]1C(C)=C[C@]23C(=O)[C@@H](C=C(CO)[C@@H](O)[C@]12O)[C@H]1[C@@H](C[C@H]3C)C1(C)C"
  assigned_label: "t"
- compound: "Nc1ncnc2c1nc(Cl)n2[C@@H]1O[C@H](CO)[C@@H](O)[C@@H]1O"
  assigned_label: "t"
- compound: "C=C1C(=O)OC(CCCCCCCC)C1C(=O)O (configuration not stated)"
  assigned_label: "t"
- compound: "COc1cc(O)c2c(c1)C(=O)c1cc(C)cc(O)c1C2=O"
  assigned_label: "f"
- compound: "Nc1ncnc2ccccc12"
  assigned_label: "f"
- compound: "O=C(O)c1ccccc1C(=O)Nc1ccc(-c2ccccc2)cc1"
  assigned_label: "f"
- compound: "COc1cccc2c1CCCC2CCCN1CCN(C2CCCCC2)CC1 (configuration not stated)"
  assigned_label: "t"
- compound: "COC(=O)[C@@H]1[C@H]2C[C@H]3c4[nH]c5ccccc5c4CCN3C[C@@H]2CC[C@@H]1O"
  assigned_label: "f"
- compound: "O=C(NCc1ccncc1)C12C[C@H]3C[C@@H](C1)CC(c1ccc(Cl)cc1)(C3)C2"
  assigned_label: "t"
- compound: "CCOC(=O)C1=C(N)Oc2ccc(Br)cc2C1C(C#N)C(=O)OCC (configuration not stated)"
  assigned_label: "t"
- compound: "CC(=O)O[C@]1(C(C)=O)CC[C@@H]2[C@@H]3C[C@H](C)C4=CC(=O)CC[C@]4(C)[C@H]3CC[C@@]21C"
  assigned_label: "f"
- compound: "C=C1C(=O)[C@@]23C(CC[C@@H]1[C@H]2O)[C@@]12CO[C@]3(O)[C@@H](O)[C@@H]1C(C)(C)CC[C@@H]2O (some centres not stated)"
  assigned_label: "t"
- compound: "CC[C@H]1OC(=O)[C@H](C)[C@@H](O[C@H]2C[C@@](C)(OC)[C@@H](O)[C@H](C)O2)[C@H](C)[C@@H](O[C@@H]2O[C@H](C)C[C@H](N(C)C)[C@@H]2O)[C@](C)(O)C[C@@H](C)CN(C)[C@H](C)[C@@H](O)[C@]1(C)O"
  assigned_label: "f"
- compound: "Oc1ccc(C2=Cc3ccc(O)cc3OC2)cc1"
  assigned_label: "t"
- compound: "O=c1c(-c2ccc(O)cc2)coc2cc(O)ccc12"
  assigned_label: "f"
- compound: "CN1C[C@H]2c3ccccc3Oc3ccc(Cl)cc3[C@@H]2C1"
  assigned_label: "f"
